target: Large T antigen (Simian virus 40) (UniProt P03070); experiment: SV40 large T antigen inhibitors, biochemical (AID 1903); conditions: SV40 large T antigen ATPase/helicase inhibition assay; at 20 µM; hits give high values
Sequence (P03070 whole entry, looked up): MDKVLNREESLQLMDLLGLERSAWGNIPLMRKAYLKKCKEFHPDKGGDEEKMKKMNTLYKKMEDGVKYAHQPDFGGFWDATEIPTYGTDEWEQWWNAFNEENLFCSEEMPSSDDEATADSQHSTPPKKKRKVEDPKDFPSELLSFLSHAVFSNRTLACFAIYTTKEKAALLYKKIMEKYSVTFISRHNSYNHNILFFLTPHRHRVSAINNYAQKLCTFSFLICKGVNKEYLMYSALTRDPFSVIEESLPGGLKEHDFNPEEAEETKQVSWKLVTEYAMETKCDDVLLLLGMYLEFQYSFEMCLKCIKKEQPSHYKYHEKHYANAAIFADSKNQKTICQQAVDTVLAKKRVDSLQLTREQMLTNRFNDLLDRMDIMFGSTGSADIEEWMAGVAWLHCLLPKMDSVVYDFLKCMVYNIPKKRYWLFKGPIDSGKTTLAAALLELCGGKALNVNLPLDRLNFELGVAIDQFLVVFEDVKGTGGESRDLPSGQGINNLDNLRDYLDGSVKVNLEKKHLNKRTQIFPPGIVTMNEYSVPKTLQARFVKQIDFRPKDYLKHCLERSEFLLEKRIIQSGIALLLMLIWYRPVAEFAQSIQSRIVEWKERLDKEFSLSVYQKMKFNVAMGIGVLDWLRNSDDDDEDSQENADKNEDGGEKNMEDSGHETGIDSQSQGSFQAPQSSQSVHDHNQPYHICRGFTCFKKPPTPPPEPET
Out of some 310,000 compounds screened, about 1,200 (0.39%) were called active. Not all results are given here. Results with a measured potency or affinity are listed apart.
Threshold check on inhibition: at or above 20% gives criterion met, strictly below gives criterion not met.

| compound | category_label |
| --- | --- |
| Cc1cc(C)nc(SCc2cc(=O)c(OC(=O)c3ccc(S(=O)(=O)N(C)C)cc3)co2)n1 | criterion met |
| CCN(c1ccccc1)c1nc2ccsc2c(=O)s1 | criterion not met |
| Cc1nn(-c2ccccc2)c(N)c1Sc1ccc([N+](=O)[O-])cc1 | criterion not met |
| CN(CCNC(=O)CCNC(=O)Cn1ccc2ccccc2c1=O)Cc1ccccc1 | criterion not met |
| CN(C)c1cc(Nc2ccc(O)cc2)c([N+](=O)[O-])c2nonc12 | criterion not met |
| O=[N+]([O-])c1c(Nc2ccccn2)cc(Cl)c2nonc12 | criterion met |
| Cc1ccnc(SCc2cc(=O)c(OC(=O)c3ccc(S(=O)(=O)N(C)C)cc3)co2)n1 | criterion not met |
| COc1c(/C=N/Nc2ccc([N+](=O)[O-])cc2[N+](=O)[O-])c(C)nn1-c1ccccc1 | criterion not met |
| COc1ccc(CN2CCC(n3nccc3NC(=O)CCOc3ccccc3)CC2)cc1C | criterion not met |
| Nc1ccc(CCS(N)(=O)=O)cc1 | criterion not met |
| COC(C(=O)Nc1ccc(NC(=O)C(OC)c2ccccc2)cc1)c1ccccc1 (stereo unspecified) | criterion not met |
| COc1ccc(S(=O)(=O)Nc2cc(C(=O)NC3CCCCCC3)ccc2N2CCOCC2)cc1 | criterion not met |
| CN(C)c1cc(Nc2cccc(O)c2)c([N+](=O)[O-])c2nonc12 | criterion not met |
| Cc1cc(NC(=O)c2cc(C(C)C)on2)nn1Cc1ccc(Cl)cc1 | criterion not met |
| COc1cc(C(=O)OCCN2CCOCC2)ccc1O | criterion met |
| CN1C(=O)[C@@H]2C[C@@]3([C@@]45C[C@H]6C(=O)N(C)[C@@H](Cc7ccccc7)C(=O)N6[C@@H]4Nc4ccccc45)c4ccccc4N[C@H]3N2C(=O)[C@@H]1Cc1ccccc1 | criterion not met |
| O=C(CS(=O)(=O)Cc1ccccc1)N1CCc2ccccc2C1 | criterion not met |
| Cc1c(Nc2cc(Cl)c3nonc3c2[N+](=O)[O-])c(=O)n(-c2ccccc2)n1C | criterion met |
| COc1cc(NC(=O)C/C(C)=N/NC(=O)C(OC)c2ccccc2)c(OC)cc1Cl (stereo unspecified) | criterion not met |
